# Tested on: osteoclast pregenitor cells
# Test: Inhibition rates of furan derivatives versus osteoclast formation (TRAP staining)
# Format: cell-based, mice
# Test parameters: 1 μM; TRAP-positive multinucleated cells, untreated control set as 100%
Readout kind: Inhibition rate against osteoclast formation, % (%)

O=Cc1ccc(COC(=O)Cc2ccsc2)o1 | 6.67
O=Cc1ccc(COC(=O)Nc2ccc(Br)cc2)o1 | 10
O=C(c1ccc(COc2ccccc2Br)o1)N1CCCCCC1 | 0
O=C(Nc1ccc(F)cc1F)c1ccc(COc2c(F)c(F)cc(F)c2F)o1 | 0
COC(=O)c1ccc(C)c(NC(=O)c2ccc(COc3ccc(I)cc3)o2)c1 | 0.08
O=C(Nc1ccc(I)cc1)c1ccc(COc2ccccc2Br)o1 | 0
O=Cc1ccc(COC(=O)Cc2cccc(Cl)c2)o1 | 23.33
O=C(O)c1ccc(COc2ccccc2Br)o1 | 0
Cc1ccc(F)c(NC(=O)c2ccc(COc3ccccc3[N+](=O)[O-])o2)c1 | 0
O=C(Nc1cccc([N+](=O)[O-])c1)c1ccc(COc2ccc(I)cc2)o1 | 0
COc1ccc(F)c(CC(=O)OCc2ccc(C=O)o2)c1 | 23.33
COC(=O)c1ccc(COc2ccccc2[N+](=O)[O-])o1 | 0
O=C(Nc1ccc(Br)cc1)c1ccc(COc2ccc(I)cc2)o1 | 0
COc1ccc(NC(=O)c2ccc(COc3ccccc3Cl)o2)cc1Cl | 0
O=C(Nc1ccccc1)c1ccc(COc2ccc3ccccc3c2)o1 | 0
O=C(O)c1ccc(COc2ccc(F)cc2)o1 | 0
COc1ccccc1OCc1ccc(C(=O)Oc2ccc(Cl)cc2)o1 | 0
CCCc1ccc(OCc2ccc(C(=O)Nc3ccc(F)cc3F)o2)c(OC)c1 | 0
Cc1cc(OCc2ccc(C(=O)Nc3ccc(Cl)cc3)o2)ccc1Cl | 0
O=C(Nc1ccc(F)cc1)c1ccc(COc2cccc(Cl)c2)o1 | 0

###

Quick reference: Inhibition rate against osteoclast formation, % of the listed items.
# Tested on: osteoclast pregenitor cells
# Test: Inhibition rates of furan derivatives versus osteoclast formation (TRAP staining)
# Assay type: cell-based, mice
# Test parameters: 1 μM; TRAP-positive multinucleated cells, untreated control set as 100%
Readout kind: Inhibition rate against osteoclast formation, % (%)

O=C(Nc1ccccc1F)c1ccc(COc2ccc(Cl)cc2)o1 | 0
CC(C)(C)c1ccc(OCc2ccc(C(=O)Nc3ccccc3)o2)cc1 | 0
O=Cc1ccc(COC(=O)Nc2ccccc2Cl)o1 | 20
CCCc1ccc(OCc2ccc(C(=O)Nc3ccc(OC)c(OC)c3)o2)cc1 | 0
O=Cc1ccc(COC(=O)Cc2c(F)cccc2F)o1 | 3.3
COc1ccccc1OCc1ccc(C(=O)OC(C)C)o1 | 0
O=C(O)c1ccc(COc2cccc3ccccc23)o1 | 0
COc1ccc(NC(=O)c2ccc(COc3cc(Cl)ccc3Cl)o2)c(OC)c1 | 5.98
O=C(O)c1ccc(COc2cccc(Cl)c2)o1 | 0
O=Cc1ccc(COC(=O)Cc2cccc(F)c2)o1 | 10

###

# Test system: osteoclast pregenitor cells
# Test: Inhibition rates of furan derivatives versus osteoclast formation (TRAP staining)
# Format: cell-based, mice
# Test parameters: 1 μM; TRAP-positive multinucleated cells, untreated control set as 100%
# Inhibition rate against osteoclast formation, % values compiled below
Readout kind: Inhibition rate against osteoclast formation, % (%)

O=C(O)c1ccc(COc2ccc(Br)cc2)o1 [Compound 103] | 0
COc1ccc(C)cc1NC(=O)c1ccc(COc2cccc(Cl)c2)o1 [Compound 171] | 0
CCOc1ccc(OCc2ccc(C(=O)NC(C)(C)C)o2)cc1 [Compound 165] | 28.76
CC(=O)c1ccc(NC(=O)c2ccc(COc3cccc4ccccc34)o2)cc1 [Compound 160] | 0
O=Cc1ccc(COC(=O)Cc2ccc3ccccc3c2)o1 [Compound 38] | 23.33
COc1ccc(NC(=O)c2ccc(COc3ccc(Cl)c(C)c3)o2)cc1 [Compound 150] | 0
COC(=O)c1ccc(CNC(C)(C)C)o1 [Compound 91] | 0
Cc1cc(OCc2ccc(C(=O)Nc3cccc(C)c3C)o2)ccc1Cl [Compound 172] | 0
CCc1ccc(OCc2ccc(C(=O)Nc3cc(C)cc(C)c3)o2)cc1 [Compound 169] | 0
CC(C)c1ccc(OCc2ccc(C(=O)O)o2)cc1 [Compound 114] | 0

###

As shown below, each of these compounds has a reported Inhibition rate against osteoclast formation, % value.
# Test system: osteoclast pregenitor cells
# Test: Inhibition rates of furan derivatives versus osteoclast formation (TRAP staining)
# Type: cell-based, mice
# Test parameters: 1 μM; TRAP-positive multinucleated cells, untreated control set as 100%
Readout kind: Inhibition rate against osteoclast formation, % (%)

Cc1cccc(C)c1NC(=O)c1ccc(COc2ccc(Cl)cc2)o1 | 0
COc1ccccc1OCc1ccc(C(=O)Nc2ccccc2Cl)o1 | 0
CC(C)(C)c1ccc(OCc2ccc(C(=O)NC3CCCCC3)o2)cc1 | 0
CCCc1ccc(OCc2ccc(C(=O)O)o2)cc1 | 0
Cc1ccc(OCc2ccc(C(=O)Nc3ccc(F)c(F)c3)o2)cc1C | 0
O=C(O)c1ccc(COc2ccccc2Cl)o1 | 0
COC(=O)c1ccc(COc2ccccc2Cl)o1 | 0
O=C(Nc1cccc(Cl)c1Cl)c1ccc(COc2ccccc2[N+](=O)[O-])o1 | 18.26
O=Cc1ccc(COC(=O)Nc2ccc(Cl)c(Cl)c2)o1 | 0
Cc1cc(OCc2ccc(C(=O)N3CCOCC3)o2)ccc1Cl | 0
CC(C)(C)NC(=O)c1ccc(COc2ccccc2Br)o1 | 0
O=Cc1ccc(CO)o1 [Compound 1, 5-hydroxymethylfuran-2-carboxyaldehyde] | 0
CC1CCN(C(=O)c2ccc(COc3cc(Cl)ccc3Cl)o2)CC1 | 0
COc1cccc(F)c1CC(=O)OCc1ccc(C=O)o1 | 6.67
O=C(Nc1ccc(F)c(F)c1)c1ccc(COc2ccc(I)cc2)o1 | 0
O=Cc1ccc(COC(=O)Cc2c(F)cccc2Cl)o1 | 16.7
O=Cc1ccc(COC(=O)C(c2ccccc2)(c2ccccc2)c2ccccc2)o1 | 16.67
COc1cc([N+](=O)[O-])ccc1NC(=O)c1ccc(COc2ccc(Cl)cc2)o1 | 0
CC(C)OC(=O)c1ccc(COc2cc(Cl)ccc2Cl)o1 | 0

###

# Tested on: osteoclast pregenitor cells
# Test: Inhibition rates of furan derivatives versus osteoclast formation (TRAP staining)
# Type: cell-based, mice
# Test parameters: 1 μM; TRAP-positive multinucleated cells, untreated control set as 100%
Entries annotated with measured Inhibition rate against osteoclast formation, %
Readout kind: Inhibition rate against osteoclast formation, % (%)

CC(C)NC(=O)c1ccc(CNc2cc(Cl)ccc2Cl)o1 | 0
COC(=O)c1ccccc1NC(=O)c1ccc(COc2ccc(Cl)cc2Cl)o1 | 22.42
C=CCc1ccc(OCc2ccc(C(=O)OC)o2)c(OC)c1 | 0
COc1ccccc1OCc1ccc(C(=O)Nc2ccc(C)c(C)c2)o1 | 0
COC(=O)c1ccc(CN(C)C)o1 | 0
CCN(CC)C(=O)c1ccc(COc2ccc(Cl)c(C)c2)o1 | 6.9
COC(=O)c1ccc(COc2cc(C)ccc2C(C)C)o1 | 0
O=C(Nc1cccc(Br)c1)c1ccc(COc2ccc(F)cc2)o1 | 0
O=C(Nc1cc(F)ccc1F)c1ccc(COc2ccccc2Cl)o1 | 0
O=Cc1ccc(COC(=O)Cc2ccc(F)cc2F)o1 | 10
COC(=O)c1ccc(CNc2ccccc2)o1 | 0
O=C(c1ccc(COc2cc(Cl)ccc2Cl)o1)N1CCCCCC1 | 0
COC(=O)c1ccc(COc2ccc(Cl)c(C)c2)o1 | 0
COc1ccccc1NC(=O)c1ccc(COc2cc(C)ccc2C)o1 | 10.71
O=C(Oc1ccccc1)c1ccc(COc2ccccc2Cl)o1 | 0
COC(=O)c1ccc(COc2ccc(Cl)cc2)o1 | 0
COC(=O)c1ccc(COc2ccc(I)cc2)o1 | 0
COc1ccc(NC(=O)c2ccc(COc3ccc(F)cc3)o2)c([N+](=O)[O-])c1 | 10.32
Cc1cc(C)cc(OCc2ccc(C(=O)Nc3ccccc3F)o2)c1 | 0
O=C(Nc1ccccc1[N+](=O)[O-])c1ccc(COc2ccccc2Cl)o1 | 0
